- procedure_details: Water solubility
- Type: physicochemical
- applied_conditions: water, simulated gastric fluid; at pH 2; read-out: solubility
assay_readout: solubility (µg/mL)
Please reply with the bare figure in µg/mL and do not write the unit itself.

# get_value(readout='solubility', item= Nc1nc(Nc2ccc(S(N)(=O)=O)cc2)nn1C(=O)c1c(F)cccc1F ) 6

---

- procedure_details: Rat PK
- Format: in vivo
- applied_conditions: in vivo; male rat; read-out: Rat (M) PK, t1/2 (converted)
assay_readout: half-life (min)
Output spec: scalar in min, unitless text.

Query (molecule): C[C@@H]1CN(Cc2ccc(F)cc2)[C@@H](C)CN1C(=O)c1cc2c(C(=O)C(=O)N(C)C)cn(C)c2cc1Cl [SCIO-469 (SD 469)] ; field requested: half-life 30
